- Test system: rape
- assay method text: Test B pre/postemergence rape
- Type: in vivo, Brassica napus
- particulars: Preemergence, Rate 250 g/ha; scale 0 to 10, 0 is no effect, 10 is complete control
test readout: Rape plant response rating

Cc1ccccc1-n1c(=O)on(C(=O)N(c2ccccc2F)C(C)C)c1=O [Compound 204]
0
CC(C)N(C(=O)n1oc(=O)n(C(C)c2ccccc2)c1=O)c1ccc(F)cc1 (stereo not drawn) [Compound 134]
0
C=C(C)Cn1c(=O)on(C(=O)N(c2ccc(F)cc2)C(C)C)c1=O [Compound 139]
4
CC(C)N(C(=O)n1oc(=O)n([C@H](C)c2ccccc2)c1=O)c1ccc(Cl)cc1 [Compound 178]
0
CC(C)N(C(=O)n1oc(=O)n(CCl)c1=O)c1ccc(Cl)cc1 [Compound 422]
0

# next compound below
Exercise: Requested read-out: Rape plant response rating. Entry: CC(C)N(C(=O)n1oc(=O)n(CCCC(F)(F)F)c1=O)c1ccc(F)cc1 [Compound 398]
Key: 8
